# IC50 per record follows
- targetUnderTest: Acetylcholinesterase (Electrophorus electricus)
- Sequence (O42275 24-633): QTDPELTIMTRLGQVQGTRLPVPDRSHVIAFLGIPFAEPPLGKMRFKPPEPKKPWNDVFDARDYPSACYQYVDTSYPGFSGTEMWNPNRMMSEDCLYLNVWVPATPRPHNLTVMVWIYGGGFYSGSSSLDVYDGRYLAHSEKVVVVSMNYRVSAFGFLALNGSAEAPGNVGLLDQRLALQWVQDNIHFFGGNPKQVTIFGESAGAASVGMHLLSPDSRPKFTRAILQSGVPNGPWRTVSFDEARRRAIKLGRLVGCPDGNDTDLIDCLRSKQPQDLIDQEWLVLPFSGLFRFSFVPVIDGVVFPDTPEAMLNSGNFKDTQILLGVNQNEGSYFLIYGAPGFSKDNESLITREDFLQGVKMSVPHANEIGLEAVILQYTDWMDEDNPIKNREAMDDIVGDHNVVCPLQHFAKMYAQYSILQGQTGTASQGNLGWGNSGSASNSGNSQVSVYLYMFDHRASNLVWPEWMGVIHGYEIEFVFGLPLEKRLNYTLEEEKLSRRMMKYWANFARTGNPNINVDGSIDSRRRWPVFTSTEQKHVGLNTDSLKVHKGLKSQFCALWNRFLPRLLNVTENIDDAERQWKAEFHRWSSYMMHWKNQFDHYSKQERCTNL

| compound | IC50 |
| --- | --- |
| O=C(/C=C/c1ccc(O)cc1)NCCc1ccc(O)cc1 [compound 1, trans-N-coumaroyltyramine] | 98.3 µM |
| O=C(/C=C/c1ccc(O)c(O)c1)NCCc1ccc(O)cc1 [compound 3, trans-N-caffeoyltyramine] | 84.3 µM |
| COc1cc(/C=C/C(=O)NCCc2ccc(O)cc2)ccc1O [compound 2, trans-N-feruloyltyramine] | 86 µM |
